system: SK-MEL-28 melanoma; assay: NCI-60 one-dose screen, 48 h (100 = growth as untreated, 0 = no growth, -100 = all killed); conditions: 10 µM unless noted
The panel holds about 83,000 compounds, 20% with a hit somewhere; the sample as a whole holds those more often.
Listed compounds paired with reported growth
Recorded Endpoint: growth (%)

>  <Item Smiles>
CN(C)CCNc1ccc2ncc(C#Cc3cncc(C(=O)Nc4ccc(CN5CCN(C)CC5)c(C(F)(F)F)c4)c3)n2n1

>  <Assay Target>
SK-MEL-28 melanoma

>  <Value Units>
%

>  <Measured Number>
75

$$$$
>  <Item Smiles>
COc1ccc(-c2nc(C#N)c(N3CCC(S(=O)(=O)N4CCOCC4)CC3)o2)cc1

>  <Assay Target>
SK-MEL-28 melanoma

>  <Value Units>
%

>  <Measured Number>
99

$$$$
>  <Item Smiles>
CC1=C(C)C(=O)C(Nc2cccc(C(=O)OC(C)(C)C)c2)=C(Cl)C1=O

>  <Assay Target>
SK-MEL-28 melanoma

>  <Value Units>
%

>  <Measured Number>
104

$$$$
>  <Item Smiles>
COc1ccc(/C(=N\NC(N)=S)c2ccc(Cl)cc2)cc1OC

>  <Assay Target>
SK-MEL-28 melanoma

>  <Value Units>
%

>  <Measured Number>
47.6

$$$$
>  <Item Smiles>
CN1CCN(c2ccc(Nc3nc(NCCCNS(=O)(=O)c4ccccc4)c4sccc4n3)cc2)CC1

>  <Assay Target>
SK-MEL-28 melanoma

>  <Value Units>
%

>  <Measured Number>
-24.3

$$$$
